Tested on: Mycobacterium tuberculosis
test_method_notes: Antibacterial activity against non-replicating form of Mycobacterium tuberculosis MC2 6220 assessed as growth inhibition after 3 days by high-throughput screening assay
Type: functional
test_conditions: MC2 6220, 72 h
reported_endpoint: MIC90

>>> readout_value("CCCc1cc(=O)oc2cc(OCCCO)c3c(c12)OC(C)(C)C=C3")
"> 17 mg/L"
>>> readout_value("CCCc1cc(=O)oc2c3c(c4c(c12)OC(C)(C)C=C4)OC(OC(C)=O)C3=O (stereo not given)")
"6 mg/L"
>>> readout_value("CC1(C)C=Cc2c(c3c(CN4CCOCC4)cc(=O)oc3c3cc([N+](=O)[O-])oc23)O1")
"< 0.2 mg/L"
>>> readout_value("CCCc1cc(=O)oc2c3c(cc(OCCO)c12)O[C@H]([N+](=O)[O-])[C@H]3O (racemic)")
"< 1 mg/L"
>>> readout_value("CCCc1cc(=O)oc2cc(NC(=O)c3ccccc3)c3c(c12)OC(C)(C)C=C3")
"> 19 mg/L"
